tested-target: Delta Receptor (Rattus norvegicus)
Construct: Rat (Sprague-Dawley) brain membranes were prepared; from tissue; host or cells: rat (Sprague-Dawley) brain membranes
Sequence (P33533 whole entry): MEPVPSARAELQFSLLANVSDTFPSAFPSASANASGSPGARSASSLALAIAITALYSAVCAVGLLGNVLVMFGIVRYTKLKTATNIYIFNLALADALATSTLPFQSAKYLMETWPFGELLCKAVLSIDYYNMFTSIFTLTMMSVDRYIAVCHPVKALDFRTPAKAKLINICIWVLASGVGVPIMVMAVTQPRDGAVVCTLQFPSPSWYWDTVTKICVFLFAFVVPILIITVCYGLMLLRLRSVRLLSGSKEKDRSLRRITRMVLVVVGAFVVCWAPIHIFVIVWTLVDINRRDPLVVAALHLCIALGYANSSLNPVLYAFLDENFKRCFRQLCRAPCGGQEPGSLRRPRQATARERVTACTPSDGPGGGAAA
assay-protocol: Delta receptor binding, rat brain membranes
Set-up: species or system rat (Sprague-Dawley)
measurement-conditions: read-out: Delta Receptor IC50, 125I-[D-Ala2,D-Leu5]enkephalin 0.24 nM with mu-agonist morphiceptin analog, 24° C., 60 min, mean of (n) experiments
measured-quantity: pIC50
Please treat pIC50 as minus the base-10 logarithm of the molar concentration.

What does the data say about its pIC50? Entry: C=CCN1C[C@H](C)N([C@H](c2cccc(O)c2)c2cccs2)C[C@H]1C
7.57

---

This section presents molecules with their documented log10(IC50) values.
tested-target: mouse vas deferens (Mus musculus)
Construct: Vasa deferentia were removed from mice; from tissue; host or cells: mouse vas deferens
Sequence (P32300 whole entry): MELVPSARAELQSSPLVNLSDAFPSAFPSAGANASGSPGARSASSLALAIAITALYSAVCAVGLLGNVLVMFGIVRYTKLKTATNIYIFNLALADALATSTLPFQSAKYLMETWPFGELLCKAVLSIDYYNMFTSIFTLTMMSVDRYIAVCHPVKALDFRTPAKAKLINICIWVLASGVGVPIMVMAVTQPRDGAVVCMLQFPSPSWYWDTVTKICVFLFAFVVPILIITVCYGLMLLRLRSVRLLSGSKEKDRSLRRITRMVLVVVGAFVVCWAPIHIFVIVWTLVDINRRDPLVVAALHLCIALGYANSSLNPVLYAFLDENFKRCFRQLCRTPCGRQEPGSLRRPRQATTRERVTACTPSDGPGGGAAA
assay-protocol: cell-based
Format: cell-based
All values: log10 IC50 [nM].

>>> numeric_readout("C=CCN1C[C@H](C)N([C@@H](c2cccc(O)c2)c2cccc(C(=O)N(CC)CC)c2)C[C@H]1C (relative stereo) [Example 84]")
0.93
>>> numeric_readout("C=CCN1C[C@H](C)N([C@H](c2ccc(S(C)(=O)=O)cc2)c2cccc(O)c2)C[C@H]1C (relative stereo) [Example 54]")
1.62
>>> numeric_readout("C=CCN1C[C@H](C)N([C@H](c2ccc(C(=O)N(CC)CC)cc2)c2cccc(O)c2)C[C@H]1C (relative stereo) [Example 6]")
-0.70

What does the data say about its log10(IC50)? Entry: C=CCN1C[C@@H](C)N([C@H](c2ccccc2)c2cccc(O)c2)C[C@@H]1C (relative stereo) [Example 9]
1.60

What does the data say about its log10(IC50)? Entry: C=CCN1C[C@H](C)N([C@H](c2ccc(S(=O)(=O)N(CC)CC)cc2)c2cccc(O)c2)C[C@H]1C (relative stereo) [Example 59]
0.41
